Each entry below carries its recorded z-score.
- system.name: NADPH oxidase 5 (Homo sapiens) (UniProt Q96PH1)
- Sequence (Q96PH1 whole entry, looked up): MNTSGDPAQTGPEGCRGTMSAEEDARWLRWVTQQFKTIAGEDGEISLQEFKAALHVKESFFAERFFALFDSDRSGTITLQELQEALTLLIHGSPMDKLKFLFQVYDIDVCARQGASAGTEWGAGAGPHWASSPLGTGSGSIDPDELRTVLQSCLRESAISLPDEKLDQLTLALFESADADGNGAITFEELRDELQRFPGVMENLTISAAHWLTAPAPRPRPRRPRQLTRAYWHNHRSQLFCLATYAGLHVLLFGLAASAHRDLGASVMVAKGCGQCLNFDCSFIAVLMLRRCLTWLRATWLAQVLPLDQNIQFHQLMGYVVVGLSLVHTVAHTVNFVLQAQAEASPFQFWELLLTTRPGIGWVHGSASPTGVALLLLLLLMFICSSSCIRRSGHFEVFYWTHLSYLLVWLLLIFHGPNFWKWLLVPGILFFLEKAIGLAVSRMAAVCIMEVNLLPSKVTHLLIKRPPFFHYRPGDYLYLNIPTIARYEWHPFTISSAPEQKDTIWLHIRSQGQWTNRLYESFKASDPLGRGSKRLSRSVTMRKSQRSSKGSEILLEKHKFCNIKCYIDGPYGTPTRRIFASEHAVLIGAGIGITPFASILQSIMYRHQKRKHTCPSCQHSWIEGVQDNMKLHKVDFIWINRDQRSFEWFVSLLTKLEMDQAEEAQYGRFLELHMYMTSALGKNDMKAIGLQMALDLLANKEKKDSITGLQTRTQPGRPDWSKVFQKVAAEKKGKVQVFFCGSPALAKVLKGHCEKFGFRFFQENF
- method: compounds shifting NOX5 Amplex Red fluorescence – cell-based, HEK293-NOX5, NOX inhibitor project, primary screen (AID 1161)
- stated.conditions: HEK293-NOX5, ionomycin, 45 min, higher = more signal
Please reply with the value in numeric form only.

Kindly note the recorded z-score for COC(=O)C(CC#Cc1ccc2c(c1)[C@]1(C(=O)N2)[C@H](c2ccc(O)cc2)N2[C@H](c3ccccc3)[C@H](c3ccccc3)OC(=O)[C@H]2[C@@H]1C(=O)NC[C@H](O)c1ccccc1)C(=O)OC , which is 1.47

Kindly note the recorded z-score for CCCC[C@@H](O)C1=C(COC)C[C@H]2C(=O)N(Cc3ccccc3)C(=O)[C@H]2[C@H]1CO , which is 0.373

Kindly note the recorded z-score for [N-]=[N+]=Nc1ccccc1C[C@]1(C(=O)O)COC(c2ccc(OCCCO)cc2)=N1 , which is -2.7

Next:
Kindly note the recorded z-score for Cc1ccc(S[C@]2(C(=O)NCc3ccccc3)CC(=O)N(C3CCCCC3)[C@@H]2c2ccc(CO)cc2I)cc1 , which is 1.79

Kindly note the recorded z-score for CN1C(=O)C2C=CC(C(O)c3cccn3C)N(Nc3ccc([N+](=O)[O-])cc3[N+](=O)[O-])C2C1=O (configuration not stated) , which is -1.27

Kindly note the recorded z-score for CCOC(=O)C[C@H]1[C@H](OC(=O)c2cc3ccccc3oc2=O)[C@@H](NC(=O)c2ccccc2)c2cc(OCCCO)ccc2N1C(=O)c1ccccc1 , which is -0.713

Kindly note the recorded z-score for CCCC[C@@H](O)C1=C(COC)C[C@H]2C(=O)N(C)C(=O)[C@H]2[C@H]1CO , which is 0.819

----------
- system.name: Torsin-1A-interacting protein 2 (Homo sapiens) (UniProt Q8NFQ8)
- Sequence (Q8NFQ8 whole entry, looked up): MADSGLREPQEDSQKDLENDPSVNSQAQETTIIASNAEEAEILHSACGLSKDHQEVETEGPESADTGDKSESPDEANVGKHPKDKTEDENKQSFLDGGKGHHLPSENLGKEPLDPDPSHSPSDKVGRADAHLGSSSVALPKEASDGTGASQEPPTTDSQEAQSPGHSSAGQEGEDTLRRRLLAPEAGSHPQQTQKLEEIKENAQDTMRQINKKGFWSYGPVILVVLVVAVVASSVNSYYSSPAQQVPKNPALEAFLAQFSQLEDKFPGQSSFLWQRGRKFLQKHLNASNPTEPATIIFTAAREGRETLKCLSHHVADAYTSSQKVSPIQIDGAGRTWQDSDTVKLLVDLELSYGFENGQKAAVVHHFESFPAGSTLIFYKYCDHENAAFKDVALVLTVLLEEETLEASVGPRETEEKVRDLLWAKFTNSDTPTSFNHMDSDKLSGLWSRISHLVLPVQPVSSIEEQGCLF
- method: small molecules binding lysate-expressed LULL1 – cell lysate, human LULL1 lysate, 635/667 nm fluorescence, primary screen (AID 1092);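 note: probe is lysate of COS7 cells overexpressing human LULL1; score merges per-feature 667 nm fluorescence with signal-to-noise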
- stated.conditions: small-molecule microarray, hLULL1 lysate binding, 635 nm fluorescence; higher = more signal
Binary call on composite z-score: Criterion met from 0.8 upward, Criterion not met beneath that.

The examples below pair each entry with its known result.
Determine whether measured composite z-score meets or exceeds 0.8 for CC[C@@H]1C=C(C(=O)O)[C@H](c2ccc(C#N)cc2)N1S(=O)(=O)c1ccc(C)cc1
Criterion met

Determine whether measured composite z-score meets or exceeds 0.8 for Cc1ccc(N2C(=O)c3ccccc3[C@@H](C(=O)NCCCN(C)C)[C@@H]2c2ccc(CO)cc2)nc1
Criterion not met

Determine whether measured composite z-score meets or exceeds 0.8 for CCOC(=O)C[C@H]1[C@H](OC(=O)c2ccc(-c3ccccc3)cc2)[C@@H](NC(=O)CC(C)C)c2cc(OCCCO)ccc2N1C(=O)c1ccc2ccccc2n1
Criterion met

Determine whether measured composite z-score meets or exceeds 0.8 for CC1CC/C=C\[C@H]2OC34C=CCN(Cc5ccccc5)C(=O)[C@H]3N(C(CO)C(C)C)C(=O)[C@@H]4C2C(=O)O1 (some centres not stated)
Criterion not met

Determine whether measured composite z-score meets or exceeds 0.8 for COCCOC(=O)N1C(=O)[C@@]2(c3ccccc31)[C@H](c1ccc(O)cc1)N1[C@H](c3ccccc3)[C@H](c3ccccc3)OC(=O)[C@H]1[C@@H]2C(=O)N1CCN(c2ncccn2)CC1
Criterion met

Next:
Determine whether measured composite z-score meets or exceeds 0.8 for CCCNC(=O)[C@@]1(Sc2ccc(C)cc2)CC(=O)N(C2Cc3ccccc3C2)[C@@H]1c1ccc(CO)cc1I
Criterion met

Determine whether measured composite z-score meets or exceeds 0.8 for COCC(=C=CC[C@H](O)c1ccc(CO)o1)CCO
Criterion not met
